B1: FANCE (parent)
chain: AQVLMLGQILELPWKEETFLVLQS

# Variants of: B1
# PROCEDURE_SUMMARY: protein stability index of a GFP-peptide fusion (GPS, HEK-293T) (PSI 1-6); higher = more stable;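 further: lentivirally expressed fusions sorted by FACS into six bins by GFP to DsRed ratio, PSI derived from sequencing read proportions per bin multiplied by bin number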
# CONDITION: c terminus: a fixed tail appended
OBSERVATION_TYPE: protein stability index
Could you keep your reply to the number by itself?

Guide cases for protein stability index, answers given:
mutation_code=V3E test_value=1.82
mutation_code=Q8W test_value=2.25
mutation_code=A1Q test_value=2.4

## Input Indicate the recorded protein stability index value for this variant: S24K
## Output 2.21

## Input Please indicate protein stability index recorded for K15V
## Output 5.16

## Input Give the value of protein stability index reported for the following: F19Y
## Output 2.24

## Input Report measured protein stability index; entry is E17V
## Output 4.49

## Input Provide one value: measured protein stability index of L10E
## Output 1.94
